experiment: Solubility, method of the European Pharmacopoeia 6.0; assay type: physicochemical; settings: organic solvent or mixture, thermodynamic from solid; batch Ch730/16/8g; DMSO added in 0.1 mL portions, Vortex 3 min after each addition
quantity_name: solubility at 3 min

[[record]]
compound = "CCCCCCCC/C=C\\CCCCCCCC(=O)OCC(COP(=O)(O)OCCNC(=O)c1ccc(Cn2c(=O)[nH]c3c(N)nc(OCCOC)nc32)cc1)OC(=O)CCCCCCC/C=C\\CCCCCCCC (stereo not shown)"
quantity_name = "solubility at 3 min"
observed = "259 mg/mL"


====

test system: mouse macrophage cell line Raw264.7; experiment: IL-6 and TNF-alpha secretion in Raw264.7 cells (Model 1), ELISA; format: cell-based; conditions: Mus musculus, RAW264.7; Raw 264.7; 24 hours; 7 doses; read-out: EC 50 IL 6
quantity_name: EC50 (nM)

[[record]]
compound = "CCCCCCCC/C=C\\CCCCCCCC(=O)OCC(COP(=O)(O)OCCNC(=O)c1ccc(Cn2c(=O)[nH]c3c(N)nc(OCCOC)nc32)cc1)OC(=O)CCCCCCC/C=C\\CCCCCCCC (stereo not shown) [Compound A]"
assay_target = "mouse macrophage cell line Raw264.7"
observed = 6


====

system: human whole blood; assay: Cytokine secretion in human whole blood assay, ELISA; format: cell-based; conditions: Homo sapiens, 24 h; whole blood; read-out: EC50-IL-12p40, 24 h Incubation, Donor 1
quantity_name: EC50 (µM)

[[record]]
molecule = "CCCCCCCC/C=C\\CCCCCCCC(=O)OCC(COP(=O)(O)OCCNC(=O)c1ccc(Cn2c(=O)[nH]c3c(N)nc(OCCOC)nc32)cc1)OC(=O)CCCCCCC/C=C\\CCCCCCCC (stereo not shown) [Compound A]"
observed = 2.87


====

system: human whole blood; test: Cytokine secretion in human whole blood assay, ELISA; format: cell-based; settings: Homo sapiens, 6 h, read-out: EC50-IFN-alpha, 6 h Incubation, Donor 1; whole blood
pEC50: −log10 of the molar value.
quantity_name: pEC50

[[record]]
compound = "CCCCCCCC/C=C\\CCCCCCCC(=O)OCC(COP(=O)(O)OCCNC(=O)c1ccc(Cn2c(=O)[nH]c3c(N)nc(OCCOC)nc32)cc1)OC(=O)CCCCCCC/C=C\\CCCCCCCC (stereo not shown)"
observed = 5.93


====

test system: human whole blood; experiment: Cytokine secretion in human whole blood assay, ELISA; type: cell-based; conditions: Homo sapiens, 24 h; read-out: EC50-IL-6, 24 h Incubation, Donor 2
quantity_name: EC50 (nM)

[[record]]
molecule = "CCCCCCCC/C=C\\CCCCCCCC(=O)OCC(COP(=O)(O)OCCNC(=O)c1ccc(Cn2c(=O)[nH]c3c(N)nc(OCCOC)nc32)cc1)OC(=O)CCCCCCC/C=C\\CCCCCCCC (stereo not shown) [Compound A]"
assay_target = "human whole blood"
observed = 320


====

tested on: human whole blood; experiment: Cytokine secretion in human whole blood assay, ELISA; assay type: cell-based; details: Homo sapiens, 24 h; read-out: EC50-IFN-alpha, 24 h Incubation, Donor 2
pEC50: −log10 of the molar value.
quantity_name: pEC50

[[record]]
molecule = "CCCCCCCC/C=C\\CCCCCCCC(=O)OCC(COP(=O)(O)OCCNC(=O)c1ccc(Cn2c(=O)[nH]c3c(N)nc(OCCOC)nc32)cc1)OC(=O)CCCCCCC/C=C\\CCCCCCCC (stereo not shown) [Compound A]"
assay_target = "human whole blood"
quantity_name = "pEC50"
observed = 6.33


====

Tested on: human whole blood
Assay: Cytokine secretion in human whole blood assay, ELISA
Assay type: cell-based
Conditions: Homo sapiens, 24 h; read-out: EC50-IL-10, 24 h Incubation, Donor 2
Experimental: Before drawing the blood, the compounds were added to 96 well round bottom plates in a 10× diluted sample at 20 ul. The compounds were diluted in RPMI media without serum but with antibiotics. Antibiotics were added at a 10× concentration. […] Concentrations of cytokines were determined by ELISA from R&D Systems. The results were analyzed in Graph Pad Prism in order to prepare dose-response […]
pEC50: −log10 of the molar value.
quantity_name: pEC50

[[record]]
molecule = "CCCCCCCC/C=C\\CCCCCCCC(=O)OCC(COP(=O)(O)OCCNC(=O)c1ccc(Cn2c(=O)[nH]c3c(N)nc(OCCOC)nc32)cc1)OC(=O)CCCCCCC/C=C\\CCCCCCCC (stereo not shown) [Compound A]"
observed = 6.07


====

test system: human whole blood; test: Cytokine secretion in human whole blood assay, ELISA; type: cell-based; conditions: Homo sapiens, 24 h; read-out: EC50-IFN-alpha, 24 h Incubation, Donor 1
quantity_name: EC50

[[record]]
compound = "CCCCCCCC/C=C\\CCCCCCCC(=O)OCC(COP(=O)(O)OCCNC(=O)c1ccc(Cn2c(=O)[nH]c3c(N)nc(OCCOC)nc32)cc1)OC(=O)CCCCCCC/C=C\\CCCCCCCC (stereo not shown)"
observed = "240 nM"


====

tested on: human whole blood; test: Cytokine secretion in human whole blood assay, ELISA; type: cell-based; settings: Homo sapiens, 6 h, read-out: EC50-IL-6, 6 h Incubation, Donor 3; whole blood
pEC50: −log10 of the molar value.
quantity_name: pEC50

[[record]]
compound = "CCCCCCCC/C=C\\CCCCCCCC(=O)OCC(COP(=O)(O)OCCNC(=O)c1ccc(Cn2c(=O)[nH]c3c(N)nc(OCCOC)nc32)cc1)OC(=O)CCCCCCC/C=C\\CCCCCCCC (stereo not shown) [Compound A]"
observed = 6.28


Provenance of the data: patent US20120003298A1
